Where do these numbers come from? They come from patent US9259491B2.

# assay.remarks: Millimolar relaxivity r1p from T1 measurements in water, HSA 4% and human plasma (0.47T/20 MHz, 25° C.)
# Assay type: physicochemical
# condition.summary: Water
Rule: r1p below 10 mM⁻¹ s⁻¹ gives yes, anything at or above gives no.

molecule	class.label
CCCCCCCCCCN(CCCCCCCCCC)C(=O)CCCCC1(N(CC(=O)[O-])CC(=O)[O-])CN(CC(=O)[O-])CCN(CC(=O)[O-])C1.[Gd+3].[Na+] [Compound 12d]	no
CCCCCCCCN(CCCCCCCC)C(=O)CCCCC1(N(CC(=O)[O-])CC(=O)[O-])CN(CC(=O)[O-])CCN(CC(=O)[O-])C1.[Gd+3].[Na+] [Compound 12c]	no
CCCCCCN(CCCCCC)C(=O)CCCCC1(N(CC(=O)[O-])CC(=O)[O-])CN(CC(=O)[O-])CCN(CC(=O)[O-])C1.[Gd+3].[Na+] [Compound 12b]	no
C[NH2+]C[C@H](O)[C@@H](O)[C@H](O)[C@H](O)CO.C[NH2+]C[C@H](O)[C@@H](O)[C@H](O)[C@H](O)CO.O=C([O-])CN(CCN(CC(=O)[O-])CC(=O)[O-])CCN(CC(=O)[O-])C(COCc1ccccc1)C(=O)[O-].[Gd+3] (stereo not shown) [Gd-BOPTA, reference compound]	yes
CCCCCCCCN(CCCCCCCC)C(=O)C1CCC(C2(N(CC(=O)[O-])CC(=O)[O-])CN(CC(=O)[O-])CCN(CC(=O)[O-])C2)CC1.[Gd+3].[Na+] (stereo not shown) [Compound 25b]	no
CCCCCCCCCC(=O)OC[C@H](COP(=O)([O-])OCCNC(=O)C1CCC(C2(N(CC(=O)[O-])CC(=O)[O-])CN(CC(=O)[O-])CCN(CC(=O)[O-])C2)CC1)OC(=O)CCCCCCCCC.[Gd+3].[Na+].[Na+] (stereo partly shown) [Compound 25c]	no
O=C([O-])CN1CCN(CC(=O)[O-])CCN([C@H](CO)[C@H](O)CO)CCN(CC(=O)[O-])CC1.[Gd+3] [Gd-BT-DO3A, reference compound]	yes

* * *

Reported r1p values follow for various compounds
# assay.remarks: Millimolar relaxivity r1p from T1 measurements in water, HSA 4% and human plasma (0.47T/20 MHz, 25° C.)
# Assay type: physicochemical
# condition.summary: Human plasma

compound	r1p
CC(O)CN1CCN(CC(=O)[O-])CCN(CC(=O)[O-])CCN(CC(=O)[O-])CC1.[Gd+3] (stereo not drawn) [Gd-HP-DO3A, reference compound]	4.80 mM⁻¹ s⁻¹
CCCCCCCCCCCC(=O)OC[C@H](COP(=O)(O)OCCNC(=O)CCCCC1(N(CC(=O)[O-])CC(=O)[O-])CN(CC(=O)[O-])CCN(CC(=O)[O-])C1)OC(=O)CCCCCCCCCCC.[Gd+3].[Na+] [Compound 9b]	32.5 mM⁻¹ s⁻¹
C[NH2+]C[C@H](O)[C@@H](O)[C@H](O)[C@H](O)CO.O=C([O-])CN1CCN(CC(=O)[O-])CCN(CC(=O)[O-])CCN(CC(=O)[O-])CC1.[Gd+3] [Gd-DOTA, reference compound]	4.51 mM⁻¹ s⁻¹
